Hi there, I'd appreciate the recorded IC50 for every entry that follows.
Target: RNA-directed RNA polymerase (Hepacivirus hominis)
Assay: Inhibition of HCV 1b NS5B delta21 RNA dependent RNA polymerase by SPA
Only the number, expressed in nM, is required.

The reported value for O=C(O)c1ccc2c(c1)nc(-c1ccccn1)n2C1CCCCC1 in terms of IC50 is 2700

The reported value for Cn1c(-c2ccoc2)c(C2CCCCC2)c2ccc(C(=O)O)nc21 in terms of IC50 is 51

The reported value for COC(=O)c1c(C(=O)O)ccc2c(C3CCCC3)c(-c3ccoc3)n(C)c12 in terms of IC50 is 480

The reported value for Cn1c(-c2ccccc2)c(C2CCCCC2)c2ccc(C(=O)O)cc21 in terms of IC50 is 30

The reported value for COc1c(C(=O)O)ccc2c(C3CCCC3)c(-c3ccoc3)n(C)c12 in terms of IC50 is 340

The reported value for O=C(O)c1ccc2c(C3CCCC3)c(-c3ccoc3)oc2c1 in terms of IC50 is 81

The reported value for Cn1c(-c2ccccn2)c(C2CCCCC2)c2ccc(C(=O)O)cc21 in terms of IC50 is 90

The reported value for Cn1c(-c2ccoc2)c(C2CCCCC2)c2ccc(C(=O)O)cc21 in terms of IC50 is 16

The reported value for Cc1c(-c2ccccn2)n(C2CCCCC2)c2ccc(C(=O)O)cc12 in terms of IC50 is 820

The reported value for O=C(O)c1ccc2c(C3CCCC3)c(-c3ccoc3)sc2c1 in terms of IC50 is 78

====

Molecular target: RNA-directed RNA polymerase (Hepacivirus hominis, UniProt O39930)
Sequence (O39930 whole entry): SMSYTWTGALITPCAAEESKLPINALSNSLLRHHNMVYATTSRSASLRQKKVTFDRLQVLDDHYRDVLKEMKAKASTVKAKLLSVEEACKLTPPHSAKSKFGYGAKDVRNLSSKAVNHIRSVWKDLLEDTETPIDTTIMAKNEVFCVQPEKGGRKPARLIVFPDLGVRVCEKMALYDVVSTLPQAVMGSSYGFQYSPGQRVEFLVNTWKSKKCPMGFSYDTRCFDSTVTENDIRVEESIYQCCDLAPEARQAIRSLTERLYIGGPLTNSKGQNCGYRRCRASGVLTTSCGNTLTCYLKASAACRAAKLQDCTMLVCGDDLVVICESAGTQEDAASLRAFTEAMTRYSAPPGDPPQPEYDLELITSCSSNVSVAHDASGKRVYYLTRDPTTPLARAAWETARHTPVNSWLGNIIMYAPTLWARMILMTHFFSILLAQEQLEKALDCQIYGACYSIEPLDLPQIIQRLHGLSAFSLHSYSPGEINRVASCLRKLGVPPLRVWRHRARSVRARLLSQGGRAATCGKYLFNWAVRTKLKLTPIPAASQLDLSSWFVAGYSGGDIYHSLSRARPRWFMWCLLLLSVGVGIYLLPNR
Experiment: Inhibition of HCV 1b NS5B delta21 RNA dependent RNA polymerase by SPA
experimental endpoint: pIC50
Scale: negative log10 of molar concentration, which is what pIC50 denotes.

With RNA-directed RNA polymerase (Hepacivirus hominis, UniProt O39930) as the test system, O=C(O)c1ccc2c(c1)nc(-c1ccccc1)n2C1CCCCC1 showed pIC50 of 5.51

With RNA-directed RNA polymerase (Hepacivirus hominis, UniProt O39930) as the test system, Cn1c(-c2ccoc2)c(C2CCCC2)c2ccc(C(=O)O)cc21 showed pIC50 of 7.68

With RNA-directed RNA polymerase (Hepacivirus hominis, UniProt O39930) as the test system, Cn1c(-c2ccccc2)c(C2CCCCC2)c2ccc(C(=O)O)nc21 showed pIC50 of 7.10

With RNA-directed RNA polymerase (Hepacivirus hominis, UniProt O39930) as the test system, Cn1c(-c2ccoc2)c(C2CCCC2)c2ccc(C(=O)O)c(C(=O)O)c21 showed pIC50 of 5.28

With RNA-directed RNA polymerase (Hepacivirus hominis, UniProt O39930) as the test system, O=C(O)c1ccc2c(c1)nc(-c1ccoc1)n2C1CCCCC1 showed pIC50 of 5.96

With RNA-directed RNA polymerase (Hepacivirus hominis, UniProt O39930) as the test system, O=C(O)c1ccc2c(C3CCCC3)c(-c3ccoc3)[nH]c2c1 showed pIC50 of 7.60
